- TARGET OF ASSAY: Oxytocin receptor (Homo sapiens)
- Sequence (whole entry): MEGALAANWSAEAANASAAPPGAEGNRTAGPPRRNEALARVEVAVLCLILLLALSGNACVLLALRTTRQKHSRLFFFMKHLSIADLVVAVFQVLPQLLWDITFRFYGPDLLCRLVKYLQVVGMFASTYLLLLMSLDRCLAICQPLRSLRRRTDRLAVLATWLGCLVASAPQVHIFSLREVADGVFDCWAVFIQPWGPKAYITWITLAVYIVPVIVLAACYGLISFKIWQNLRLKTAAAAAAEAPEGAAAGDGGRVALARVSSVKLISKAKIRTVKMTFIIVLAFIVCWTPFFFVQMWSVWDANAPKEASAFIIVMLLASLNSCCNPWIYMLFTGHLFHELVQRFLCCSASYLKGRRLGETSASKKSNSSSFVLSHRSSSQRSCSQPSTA
- ASSAY PROCEDURE: Agonist activity at human OTR stably expressed in CHOK1 cells up to 10000 nM by NFAT-luciferase reporter gene assay
- Assay type: cell-based
Calls of active or inactive are those of the source. The calls are words filed in the database; no cut-off is given here. Numbered stars: 1 amine (or outer) side, 2 acyl side, 3 side chain; on linkers, the order of the positions; unused ones are H or OH. Bridge positions count the residues as written; N and C are the ends. Square brackets hold non-standard residues; d marks the D form. Peptide text beside a SMILES is read from it. * marks the point of attachment. Phe(4-Cl) = N[C@@H](Cc1ccc(Cl)cc1)C(=O)O; 2Thi = N[C@@H](Cc1cccs1)C(=O)O; X1 = O=C(CCC[*:2])[*:1]; NEt2 = CCN(CC)*

[
  {
    "MOLECULE": "CCN(CC)C(=O)[C@@H](CCCNC(=N)N)NC(=O)[C@@H]1CCCN1C(=O)[C@@H]1CSCCCC(=O)N[C@@H](Cc2ccc(Cl)cc2)C(=O)N[C@@H](Cc2cccs2)C(=O)N[C@@H](C(C)C)C(=O)N[C@@H](CC(N)=O)C(=O)N1 ([Phe(4-Cl)][2Thi]VNCP[dR]-NEt2; linker N-5 via X1)",
    "Activity": "inactive"
  },
  {
    "MOLECULE": "CC(C)CNC(=O)[C@H](CCCNC(=N)N)NC(=O)[C@@H]1CCCN1C(=O)[C@@H]1CSCCCC(=O)N[C@@H](Cc2ccc(Cl)cc2)C(=O)N[C@@H](Cc2cccs2)C(=O)N[C@@H](C(C)C)C(=O)N[C@@H](CC(N)=O)C(=O)N1",
    "Activity": "inactive"
  }
]
